Source listed as ChEMBL document CHEMBL3608263.

# Test system: Rattus norvegicus
# PROCEDURE_SUMMARY: Dose normalized AUC in Sprague-Dawley rat at 1 mg/kg, iv
# Format: ADME, organism-based
# CONDITION_NOTES: in vivo
Overview of recorded log10 of AUC/dose for various compounds
RESULT_TYPE: log10 of AUC/dose (log10 of the value in nmol·h/L)

1) CC(C)(C)c1ncc2c(n1)-c1sc(NC(=O)N3CC[C@@H]4C[C@@]43C(N)=O)nc1CC2 4.22
2) Cc1nc(NC(=O)N2CCC[C@H]2C(N)=O)sc1-c1ccnc(C(C)(C)C)n1 3.05
3) CN(C)C[C@@]1(C(N)=O)CCCN1C(=O)Nc1nc2c(s1)-c1nc(C(C)(C)C)ncc1CC2 3.16
4) CC(C)(C)c1nc2c(s1)CCc1nc(NC(=O)N3CCC[C@H]3C(N)=O)sc1-2 3.62
5) Cc1nc(NC(=O)N2CCC[C@H]2C(N)=O)sc1-c1csc(C(C)(C)C)n1 2.75
6) CN(C)C[C@@H]1CCN(C(=O)Nc2nc3c(s2)-c2nc(C(C)(C)C)sc2CC3)[C@@H]1C(N)=O 2.98
7) C[C@@H]1CCN(C(=O)Nc2nc3c(s2)-c2nc(C(C)(C)C)ncc2CC3)[C@@H]1C(N)=O 3.72

----------
# System: Rattus norvegicus
# PROCEDURE_SUMMARY: Dose normalized AUC in Sprague-Dawley rat at 3 mg/kg, po
# Assay type: ADME, organism-based
# CONDITION_NOTES: in vivo
RESULT_TYPE: AUC/dose (nmol·h/L)

1. C[C@@H]1CCN(C(=O)Nc2nc3c(s2)-c2nc(C(C)(C)C)ncc2CC3)[C@@H]1C(N)=O 1874
2. CN(C)C[C@@H]1CCN(C(=O)Nc2nc3c(s2)-c2nc(C(C)(C)C)sc2CC3)[C@@H]1C(N)=O 531
3. Cc1nc(NC(=O)N2CCC[C@H]2C(N)=O)sc1-c1csc(C(C)(C)C)n1 70
4. Cc1nc(NC(=O)N2CCC[C@H]2C(N)=O)sc1-c1ccnc(C(C)(C)C)n1 199
5. CN(C)C[C@@]1(C(N)=O)CCCN1C(=O)Nc1nc2c(s1)-c1nc(C(C)(C)C)ncc1CC2 1116
6. CC(C)(C)c1ncc2c(n1)-c1sc(NC(=O)N3CC[C@@H]4C[C@@]43C(N)=O)nc1CC2 13599
7. CC(C)(C)c1nc2c(s1)CCc1nc(NC(=O)N3CCC[C@H]3C(N)=O)sc1-2 1585

----------
# PROCEDURE_SUMMARY: Permeability across basolateral to apical side in human Caco2 cells
# Format: ADME, cell-based
# CONDITION_NOTES: Caco-2, read-out: permeability
RESULT_TYPE: Papp B→A (×10⁻⁶ cm/s)

1. C[C@@H]1CCN(C(=O)Nc2nc3c(s2)-c2nc(C(C)(C)C)ncc2CC3)[C@@H]1C(N)=O 21.7
2. CC(C)(C)c1ncc2c(n1)-c1sc(NC(=O)N3CCC[C@@]3(C)C(N)=O)nc1CC2 25.5
3. CC(C)(C)c1nc2c(s1)CCc1nc(NC(=O)N3CCC[C@@]3(C)C(N)=O)sc1-2 15.6
4. CN(C)C[C@@H]1CCN(C(=O)Nc2nc3c(s2)-c2nc(C(C)(C)C)sc2CC3)[C@@H]1C(N)=O 6.87
5. Cc1nc(NC(=O)N2CCC[C@H]2C(N)=O)sc1-c1ccnc(C(C)(C)C(F)(F)F)c1 18.3
6. CN(C)C[C@@]1(C(N)=O)CCCN1C(=O)Nc1nc2c(s1)-c1nc(C(C)(C)C)ncc1CC2 15.8
7. Cc1nc(NC(=O)N2CCC[C@H]2C(N)=O)sc1-c1csc(C(C)(C)C)n1 15.6
